Target: mIgCLL5-2, CLL-derived monoclonal Igγ1 antibody of clonotype CLL5-2
Assay: dose-dependent binding with Scatchard plot analysis
PROPERTY LABEL: Kd (nM)
Reply with just the number (in nM).

Exercise: Recorded Kd of CPPFTNYEC [pCLL5-2 mimotope] , please.
Solution: 7.32
